The reported measurements were obtained from ChEMBL document CHEMBL4406887.

Test: Stability in artificial gastric acid at 1 mg/ml assessed as residual rate measured immediately by HPLC analysis relative to control
Format: ADME
Conditions: read-out: Stability

| compound structure string | remaining at 0 h, 1 mg/ml |
| --- | --- |
| CC(=O)NC[C@H]1CN(c2ccc(-c3ccc(/C=N/N4CCN(C)CC4)cc3)c(F)c2)C(=O)O1 | 100% |
| CC(=O)NC[C@H]1CN(c2ccc(-c3ccc(/C=C/C(=O)N4CCNCC4)cc3)c(F)c2)C(=O)O1 | 100% |

----------
Test system: Staphylococcus aureus
Test: Antibacterial activity against methicillin-sensitive Staphylococcus aureus CLSI-based double dilution method
Type: functional
// values below are reported MIC

| compound structure string | measurement target | MIC [µg/mL] |
| --- | --- | --- |
| CC(=O)NC[C@H]1CN(c2ccc(-c3ccc(/C=C/C(=O)N4CCSCC4)cc3)c(F)c2)C(=O)O1 | Staphylococcus aureus | 1 |
| CC(=O)NC[C@H]1CN(c2ccc(-c3ccc(/C=N/N4CCN(C)CC4)cc3)c(F)c2)C(=O)O1 | Staphylococcus aureus | 0.0675 |
| CC(=O)NC[C@H]1CN(c2ccc(-c3ccc(/C=C/C(=O)N4CCCC4)cc3)c(F)c2)C(=O)O1 | Staphylococcus aureus | 1 |
| CC(=O)NC[C@H]1CN(c2ccc(-c3ccc(CNCc4cnn[nH]4)cc3)c(F)c2)C(=O)O1 | Staphylococcus aureus | 0.5 |
| CC(=O)NC[C@H]1CN(c2ccc(-c3ccc(C(=O)N4CCSCC4)cc3)c(F)c2)C(=O)O1 | Staphylococcus aureus | 2 |
| CC(=O)NC[C@H]1CN(c2ccc(-c3ccc(C(=O)NC4CCCC4)cc3)c(F)c2)C(=O)O1 | Staphylococcus aureus | 1 |
| CC(=O)NC[C@H]1CN(c2ccc(N3CCOCC3)c(F)c2)C(=O)O1 | Staphylococcus aureus | 1 |
| CC(=O)NC[C@H]1CN(c2ccc(-c3ccc(C(=O)NC4CC4)cc3)c(F)c2)C(=O)O1 | Staphylococcus aureus | 1 |
